Biological target: T1, human B7-1 K127D on cells (Homo sapiens, UniProt P33681 35-280)
T1 construct: mCherry-tagged point mutant; also called LYS127 ASP
T1 chain: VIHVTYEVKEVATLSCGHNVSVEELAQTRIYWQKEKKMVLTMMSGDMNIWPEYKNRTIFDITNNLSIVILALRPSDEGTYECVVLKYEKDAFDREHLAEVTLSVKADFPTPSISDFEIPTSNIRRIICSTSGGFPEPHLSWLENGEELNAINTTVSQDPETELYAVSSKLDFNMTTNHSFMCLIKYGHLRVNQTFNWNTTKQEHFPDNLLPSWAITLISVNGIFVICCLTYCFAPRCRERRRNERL
Assay: cell-cell binding, flow cytometry; percent of the wild-type pair
Experimental endpoint: percent binding (%)

Binder	Reported result
human p75NTR P150K on cells (receptor, Fluorescent-tagged point mutant) KEACPTGLYTHSGECCKACNLGEGVAQPCGANQTVCEPCLDSVTFSDVVSATEPCKPCTECVGLQSMSAPCVEADDAVCRCAYGYYQDETTGRCEACRVCEAGSGLVFSCQDKQNTVCEECKDGTYSDEANHVDPCLPCTVCEDTERQLRECTRWADAECEEIPGRWITRSTPPEGSDSTAPSTQEPEAPPEQDLIASTVAGVVTTVMGSSQPVVTRGTTDNLIPVYCSILAAVVVGLVAYIAFKRWNSCKQNKQGANSRPVNQTPPPEGEKLHSDSGISVDSQSLHDQQPHTQTASGQALKGDGGLYSSLPPAKREEVEKLLNGSAGDTWRHLAGELGYQPEHIDSFTHEACPVRALLASWATQDSATLDALLAALRRIQRADLVESLCSESTATSPV	15
human p75NTR L165H on cells (receptor, Fluorescent-tagged point mutant; also called LEU165H*) KEACPTGLYTHSGECCKACNLGEGVAQPCGANQTVCEPCLDSVTFSDVVSATEPCKPCTECVGLQSMSAPCVEADDAVCRCAYGYYQDETTGRCEACRVCEAGSGLVFSCQDKQNTVCEECPDGTYSDEANHVDPCHPCTVCEDTERQLRECTRWADAECEEIPGRWITRSTPPEGSDSTAPSTQEPEAPPEQDLIASTVAGVVTTVMGSSQPVVTRGTTDNLIPVYCSILAAVVVGLVAYIAFKRWNSCKQNKQGANSRPVNQTPPPEGEKLHSDSGISVDSQSLHDQQPHTQTASGQALKGDGGLYSSLPPAKREEVEKLLNGSAGDTWRHLAGELGYQPEHIDSFTHEACPVRALLASWATQDSATLDALLAALRRIQRADLVESLCSESTATSPV	25
human p75 neurotrophin receptor, full length, expressed on HEK 293 cells (receptor, Full-length human p75 with a cytosolic fluorescent tag (GFP); also called p75NTR; NGFR) KEACPTGLYTHSGECCKACNLGEGVAQPCGANQTVCEPCLDSVTFSDVVSATEPCKPCTECVGLQSMSAPCVEADDAVCRCAYGYYQDETTGRCEACRVCEAGSGLVFSCQDKQNTVCEECPDGTYSDEANHVDPCLPCTVCEDTERQLRECTRWADAECEEIPGRWITRSTPPEGSDSTAPSTQEPEAPPEQDLIASTVAGVVTTVMGSSQPVVTRGTTDNLIPVYCSILAAVVVGLVAYIAFKRWNSCKQNKQGANSRPVNQTPPPEGEKLHSDSGISVDSQSLHDQQPHTQTASGQALKGDGGLYSSLPPAKREEVEKLLNGSAGDTWRHLAGELGYQPEHIDSFTHEACPVRALLASWATQDSATLDALLAALRRIQRADLVESLCSESTATSPV	26
